# Test system: HCT-15
property-name: GI50

compound="Nc1ccc(C(=O)NN2C(=O)C(Cl)C2c2ccccc2)cc1 (stereo unspecified)" value_reported="> 100 µM"
compound="COC1=CC(O)(CC(N)=O)c2ccccc2C1=O (stereo unspecified)" value_reported="> 100 µM"

Consider the additional compound presented here.
Problem: Entry Cc1nccc2c1cnc1ccnn12 : reported GI50 = ?
Solution: > 100 µM

====

# System: RXF 631
# test-name: NCI tumour cell line growth inhibition, 48 h
The source made the active and inactive calls. Cut-off read from the data, not from the text of the source: active = GI50 up to about 1.1 µM and inactive = higher.
Respond using exactly one of the listed classes: y for active, n for inactive

Here's what some known entries look like.
compound=O=C(c1ccccc1)[C@@H]1C[C@H](Sc2ccccc2)c2cc(Cl)ccc2N1 system_under_test="RXF 631" discrete_label=n
compound=CCCCCCC(=O)C/C(CCC(=O)N(Cc1ccccc1)Cc1ccccc1)=N\NC(N)=O system_under_test="RXF 631" discrete_label=n
compound=O=C1O/C(=C(/c2ccc(Cl)cc2)c2nc3ccccc3[nH]2)C(O)=C1c1ccc(Cl)cc1 system_under_test="RXF 631" discrete_label=y
compound="CC(C)C1CN(C(=O)OCc2ccccc2)C2N1C(=O)C2(C)OCc1ccccc1 (stereo unspecified)" system_under_test="RXF 631" discrete_label=n
compound="CC(O)c1ccc(C(O)/C(=N\\NC(=O)c2ccncc2)c2nc3ccc([N+](=O)[O-])cc3nc2O)cc1 (stereo unspecified)" system_under_test="RXF 631" discrete_label=n
compound="COC1=CC(O)(CC(N)=O)c2ccccc2C1=O (stereo unspecified)" system_under_test="RXF 631" discrete_label=n

Problem: Tell me the recorded outcome of this test for CN1CC[C@]2(C)c3ccc(O)cc3CC3CCCC1C32C (stereo partly specified) .
Solution: n

Problem: Next entry: O=C(CCC(=O)Nc1ccc(Cl)c(Cl)c1)CC(=O)c1ccc(Br)cc1
Solution: n

====

# Test system: MCF7
# test-name: NCI tumour cell line growth inhibition, 48 h
Activity calls are given as the source filed them. Rule as the data show it: active = GI50 up to about 1.1 µM and inactive = higher.
Property: GI50; scope: individual molecules

Here's what some known entries look like.
molecule=[C-]#[N+]C(=C\c1ccc(O)cc1)/C(=C/c1ccc(O)cc1)[N+]#[C-] property_name=GI50 value_reported="1.55 µM (inactive)"
molecule=CC(C)C[C@H](NC(=O)[C@@H](N)Cc1cccc2ccccc12)B(O)O property_name=GI50 value_reported="< 0.0232 µM (active)"

Problem: Entry CC(C)NC(=O)OCc1c(COC(=O)NC(C)C)n(C)c2c1ccc1ccccc12 : reported GI50 = ?
Solution: 0.57 µM (active)

Problem: Next entry: CC(=O)c1c(N=[N+]=[N-])c2cccc3c2n(c1=O)CCC3
Solution: 19.8 µM (inactive)

Problem: Next entry: Cc1cccc2c(N)c3cccc(C(=O)NCC[N+](C)(C)Cc4ccc([N+](=O)[O-])n4C)c3nc12
Solution: 8.65 µM (inactive)

Problem: Next entry: N#C/C(=C\c1ccc2[nH]ccc2c1)C(=O)NCCCCNC(=O)/C(C#N)=C/c1ccc2[nH]ccc2c1
Solution: > 10 µM (inactive)

Problem: Next entry: COc1cc(C2SCCCCCCCCCCSC(c3ccc(O)c(OC)c3)SCCCCCCCCCCS2)ccc1O (centres undefined)
Solution: > 100 µM (inactive)

Problem: Next entry: O=C1CC2(CCC(O)(c3ccco3)C(C(=O)c3ccco3)C2)C(=O)c2ccccc2N1 (centres undefined)
Solution: > 100 µM (inactive)

Problem: Next entry: CCOC(=O)C(Cc1ccc(N(CCCl)CCCl)cc1)NC(=O)C(Cc1ccccc1)NC=O (centres undefined)
Solution: 0.143 µM (active)

Cited source for all entries: ChEMBL document CHEMBL1201862
